# System: Paclitaxel-resistant human ovarian carcinoma cell A2780/TAX
# Method: SRB anti-proliferative assay, drug-resistant A2780/TAX
# Assay type: cell-based
# Condition parameters: paclitaxel-resistant A2780/TAX, SRB, read-out: Anti-proliferative IC50, A2780/TAX
Measurement kind: IC50 (nM)
Response body: numeric value in nM, unit text excluded.

Query :: IC50 lookup needed for COc1ccc(/C=C/C(=O)c2ccccc2-c2ccc(F)cc2)cc1B(O)O [compound 1] , thanks.
Result :: 227

Query :: IC50 lookup needed for COc1ccc(-c2ccccc2C(=O)/C=C/c2ccc(N(C)C)cc2)c(OC)c1OC [compound 9] , thanks.
Result :: 156

Query :: IC50 lookup needed for O=C(/C=C/c1ccc(O)c(S(=O)(=O)O)c1)c1ccccc1-c1ccc(F)cc1 [compound 22] , thanks.
Result :: 136

----------
# Test system: human colon cancer cells SW480
# Method: SRB anti-proliferative assay, SW480
# Assay type: cell-based
# Condition parameters: SW480, SRB, 48 h, read-out: Anti-proliferative IC50, SW480
Measurement kind: pIC50
As a rule, pIC50 stands for the negative log10 of the concentration, concentration in M.

Query :: pIC50 lookup needed for O=C(/C=C/c1ccc(O)c(S(=O)(=O)O)c1)c1ccccc1-c1cccc(F)c1 , thanks.
Result :: 7.80

Query :: pIC50 lookup needed for COc1cccc2c1C(=O)c1c(O)c3c(c(O)c1C2=O)C[C@@](O)(C(=O)CO)C[C@@H]3O[C@H]1C[C@H](N)[C@H](O)[C@H](C)O1 [DOX, doxorubicin, reference compound] , thanks.
Result :: 7.01

Query :: pIC50 lookup needed for O=C(/C=C/c1ccc(O)c(S(=O)(=O)O)c1)c1ccccc1-c1ccc(F)cc1 , thanks.
Result :: 7.72

Query :: pIC50 lookup needed for CN(C)c1ccc(/C=C/C(=O)c2ccccc2-c2cccc(F)c2)cc1 , thanks.
Result :: 7.36

Query :: pIC50 lookup needed for COc1ccc(/C=C/C(=O)c2ccccc2-c2ccc(F)cc2)cc1B(O)O , thanks.
Result :: 7.39

Query :: pIC50 lookup needed for COc1ccc(/C=C/C(=O)c2ccccc2-c2cccc(F)c2)cc1S(=O)(=O)O , thanks.
Result :: 8.00

Query :: pIC50 lookup needed for O=C(/C=C/c1cccc(O)c1)c1ccccc1-c1cccc(F)c1 , thanks.
Result :: 7.32

Query :: pIC50 lookup needed for CN(C)c1ccc(/C=C/C(=O)c2ccccc2-c2cccc(F)c2)cc1O , thanks.
Result :: 8.22

Query :: pIC50 lookup needed for N#Cc1ccc(/C=C/C(=O)c2ccccc2-c2cccc(F)c2)cc1 , thanks.
Result :: 7.37

Query :: pIC50 lookup needed for CN(C)c1ccc(/C=C/C(=O)c2ccccc2-c2ccc(F)cc2)cc1 , thanks.
Result :: 7.33

Query :: pIC50 lookup needed for COc1ccc(-c2ccccc2C(=O)/C=C/c2ccc(N(C)C)cc2)c(OC)c1OC , thanks.
Result :: 7.43

Query :: pIC50 lookup needed for CN(C)c1ccc(/C=C/C(=O)c2ccccc2-c2cccc(F)c2)cc1Br , thanks.
Result :: 7.06

Query :: pIC50 lookup needed for COc1ccc(/C=C/C(=O)c2ccccc2-c2ccc(OC)c(OC)c2OC)cc1O , thanks.
Result :: 7.13

----------
# Test system: human colon cancer cells SW480
# Method: SRB anti-proliferative assay, SW480
# Assay type: cell-based
# Condition parameters: SW480, SRB, 48 h, read-out: Anti-proliferative IC50, SW480
Lab note: anything with IC50 below 50 nM is marked Criterion met; values at 50 nM or higher are marked Criterion not met.

Query :: Is it true that IC50 reported for COc1ccc(/C=C/C(=O)c2ccccc2-c2cccc(F)c2)cc1O [compound 3] is less than 50 nM?
Result :: Criterion met

Query :: Is it true that IC50 reported for COc1ccc(/C=C/C(=O)c2ccccc2-c2ccc(OC)c(OC)c2OC)cc1B(O)O [compound 8] is less than 50 nM?
Result :: Criterion not met

Query :: Is it true that IC50 reported for Nc1cccc(/C=C/C(=O)c2ccccc2-c2cccc(F)c2)c1 [compound 19] is less than 50 nM?
Result :: Criterion not met

Query :: Is it true that IC50 reported for O=C(O)c1ccc(/C=C/C(=O)c2ccccc2-c2cccc(F)c2)cc1 [compound 18] is less than 50 nM?
Result :: Criterion met

Query :: Is it true that IC50 reported for O=C(/C=C/c1ccc(N2CCCC2)cc1)c1ccccc1-c1cccc(F)c1 [compound 16] is less than 50 nM?
Result :: Criterion not met

Query :: Is it true that IC50 reported for COc1ccc(/C=C/C(=O)c2ccccc2-c2cccc(F)c2)cc1B(O)O [compound 6] is less than 50 nM?
Result :: Criterion not met

Query :: Is it true that IC50 reported for COc1ccc(/C=C/C(=O)c2ccccc2-c2ccc(F)cc2)cc1S(=O)(=O)O [compound 24] is less than 50 nM?
Result :: Criterion met

----------
# Tested on: human ovary cancer cells A2780
# Method: SRB anti-proliferative assay, A2780
# Type: cell-based
# Condition parameters: A2780, SRB, 48 h, read-out: Anti-proliferative IC50, A2780
Measurement kind: log10 IC50 (log10 of the value in nM)
# values: log10(IC50), units nM

Query :: log10 IC50 lookup needed for O=C(/C=C/c1cccc(O)c1)c1ccccc1-c1cccc(F)c1 , thanks.
Result :: 1.59

Query :: log10 IC50 lookup needed for COc1cccc2c1C(=O)c1c(O)c3c(c(O)c1C2=O)C[C@@](O)(C(=O)CO)C[C@@H]3O[C@H]1C[C@H](N)[C@H](O)[C@H](C)O1 [DOX, doxorubicin, reference compound] , thanks.
Result :: 1.92

Query :: log10 IC50 lookup needed for Nc1cccc(/C=C/C(=O)c2ccccc2-c2cccc(F)c2)c1 , thanks.
Result :: 1.58

Query :: log10 IC50 lookup needed for O=C(O)c1ccc(/C=C/C(=O)c2ccccc2-c2cccc(F)c2)cc1 , thanks.
Result :: 1.67

Query :: log10 IC50 lookup needed for COc1ccc(/C=C/C(=O)c2ccccc2-c2cccc(F)c2)cc1B(O)O , thanks.
Result :: 1.79

Query :: log10 IC50 lookup needed for O=C(O)c1cccc(/C=C/C(=O)c2ccccc2-c2cccc(F)c2)c1 , thanks.
Result :: 1.54

Query :: log10 IC50 lookup needed for N#Cc1ccc(/C=C/C(=O)c2ccccc2-c2cccc(F)c2)cc1 , thanks.
Result :: 2.09

Query :: log10 IC50 lookup needed for COc1ccc(/C=C/C(=O)c2ccccc2-c2ccc(F)cc2)cc1B(O)O , thanks.
Result :: 1.80

Query :: log10 IC50 lookup needed for CN(C)c1ccc(/C=C/C(=O)c2ccccc2-c2cccc(F)c2)cc1 , thanks.
Result :: 1.86

Query :: log10 IC50 lookup needed for COc1ccc(/C=C/C(=O)c2ccccc2-c2cccc(F)c2)cc1O , thanks.
Result :: 1.11

Query :: log10 IC50 lookup needed for CN(C)c1ccc(/C=C/C(=O)c2ccccc2-c2ccc(F)cc2)cc1 , thanks.
Result :: 1.97

Query :: log10 IC50 lookup needed for O=C(/C=C/c1ccc(O)c(S(=O)(=O)O)c1)c1ccccc1-c1cccc(F)c1 , thanks.
Result :: 1.20

Query :: log10 IC50 lookup needed for COc1ccc(/C=C/C(=O)c2ccccc2-c2ccc(OC)c(OC)c2OC)cc1B(O)O , thanks.
Result :: 1.99

Query :: log10 IC50 lookup needed for COc1ccc(-c2ccccc2C(=O)/C=C/c2ccc(N(C)C)cc2)c(OC)c1OC , thanks.
Result :: 2.07

Query :: log10 IC50 lookup needed for O=C(/C=C/c1ccc(N2CCCC2)cc1)c1ccccc1-c1cccc(F)c1 , thanks.
Result :: 2.03

Query :: log10 IC50 lookup needed for CN(C)c1ccc(/C=C/C(=O)c2ccccc2-c2cccc(F)c2)cc1Br , thanks.
Result :: 1.95

Query :: log10 IC50 lookup needed for CN(C)c1ccc(/C=C/C(=O)c2ccccc2-c2cccc(F)c2)cc1O , thanks.
Result :: 1.00

----------
Record form. Attribute: IC50. Fill in for each entry.
# Tested on: human colon cancer cells HCT8
# Method: SRB anti-proliferative assay, HCT-8
# Type: cell-based
# Condition parameters: HCT-8, 48 h, read-out: Anti-proliferative IC50, HCT-8
Response body: numeric value in nM, unit text excluded.

Query :: IC50 lookup needed for COc1ccc(/C=C/C(=O)c2ccccc2-c2cccc(F)c2)cc1OP(=O)(O)O , thanks.
Result :: 61

Query :: IC50 lookup needed for COc1ccc(/C=C/C(=O)c2ccccc2-c2cc(OC)c(OC)c(OC)c2)cc1O , thanks.
Result :: 56

Query :: IC50 lookup needed for COc1ccc(/C=C/C(=O)c2ccccc2-c2ccc(F)cc2)cc1OP(=O)(O)O , thanks.
Result :: 88

----------
Record form. Attribute: log10(IC50). Fill in for each entry.
# Tested on: human ovary cancer cells A2780
# Method: SRB anti-proliferative assay, A2780
# Assay type: cell-based
# Condition parameters: A2780, SRB, 48 h, read-out: Anti-proliferative IC50, A2780
# values: log10(IC50), units nM

Query :: log10(IC50) lookup needed for COc1ccc(/C=C/C(=O)c2ccccc2-c2ccc(F)cc2)cc1S(=O)(=O)O [compound 24] , thanks.
Result :: 1.18

Query :: log10(IC50) lookup needed for O=C(/C=C/c1ccc(O)c(S(=O)(=O)O)c1)c1ccccc1-c1ccc(F)cc1 [compound 22] , thanks.
Result :: 1.59

Query :: log10(IC50) lookup needed for O=C(/C=C/c1ccc(N(c2ccccc2)c2ccccc2)cc1)c1ccccc1-c1cccc(F)c1 [compound 17] , thanks.
Result :: 2.12

Query :: log10(IC50) lookup needed for COc1ccc(/C=C/C(=O)c2ccccc2-c2cccc(F)c2)cc1S(=O)(=O)O [compound 23] , thanks.
Result :: 1.00

Query :: log10(IC50) lookup needed for COc1ccc(/C=C/C(=O)c2ccccc2-c2ccc(OC)c(OC)c2OC)cc1O [compound 5] , thanks.
Result :: 1.87
